These measurements were taken from patent US20210253550A1.

# assaySummary: Solubility of Compound 1.HCl measured gravimetrically in solvents/solvent mixtures
# Format: physicochemical
# runConditions: aqueous with cosolvent or surfactant or cyclodextrin, thermodynamic from solid; MeOH:H2O (1:1), 45° C., slurried 48 h, gravimetric
reportedEndpoint: solubility at 48 h

C[C@@H](NC(=O)N1C(=O)[C@H](Cc2ccnc(N)c2)[C@H]1C(=O)O)C1CCCCC1.Cl [Compound 1.HCl] | > 100 mg/mL

----------
# assaySummary: Solubility of Compound 1.HCl measured gravimetrically in solvents/solvent mixtures
# Type: physicochemical
# runConditions: organic solvent or mixture, thermodynamic from solid; MeCN, 15° C., slurried 48 h, gravimetric
reportedEndpoint: solubility at 48 h (µg/mL)

C[C@@H](NC(=O)N1C(=O)[C@H](Cc2ccnc(N)c2)[C@H]1C(=O)O)C1CCCCC1.Cl [Compound 1.HCl] | 700
